- TEST TARGET: Bcl-xL, Q07817
- Sequence (Q07817 1-209): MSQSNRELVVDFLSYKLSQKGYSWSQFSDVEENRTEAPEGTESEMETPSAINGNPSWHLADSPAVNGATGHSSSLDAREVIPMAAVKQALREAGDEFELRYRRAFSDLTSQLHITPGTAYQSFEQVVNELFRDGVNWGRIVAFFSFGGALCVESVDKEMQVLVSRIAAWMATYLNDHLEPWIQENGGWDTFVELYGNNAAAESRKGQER
- METHOD: peptide SPOT array, c-Myc-tagged receptor at 1 uM or 100 nM, anti-c-Myc-Cy3
SPOT signal as a fraction of Bim BH3's signal on the same receptor and array by entry:
The answer should be written as a number, with no unit following it.

[
  {
    "BINDER": "TDENKKVGLALKDLAKQYSDRLECCE [NUB1]",
    "RECORDED MEASUREMENT": 0.11
  },
  {
    "BINDER": "DVGTGAGLLEDKKIGDEYFTFITDCK [CCT3]",
    "RECORDED MEASUREMENT": 0.01
  },
  {
    "BINDER": "ISDVQVFGYSLRFNADLLRSAVQQVN [DBC1]",
    "RECORDED MEASUREMENT": 0.02
  }
]

Q: GET /values?readout=SPOT signal as a fraction of Bim BH3's signal on the same receptor and array&item= NDDTPWIARTLDNLADELTAILSAPA [GBP6]
Ans: 0.04

Q: Note, next up: TIHFNQRGTRLASSGDDLRVIVWDWV [DCAF8L1]
Ans: 0.06

Q: Note, next up: EVDVGKLVSRLQDGGTKITPKATNGP [OPHN1]
Ans: 0.02

src = paper PMC4072508
